// molecules with reported Ki on 5-hydroxytryptamine receptor 6 (Homo sapiens, UniProt P50406), multi-publication
Sequence (P50406 whole entry): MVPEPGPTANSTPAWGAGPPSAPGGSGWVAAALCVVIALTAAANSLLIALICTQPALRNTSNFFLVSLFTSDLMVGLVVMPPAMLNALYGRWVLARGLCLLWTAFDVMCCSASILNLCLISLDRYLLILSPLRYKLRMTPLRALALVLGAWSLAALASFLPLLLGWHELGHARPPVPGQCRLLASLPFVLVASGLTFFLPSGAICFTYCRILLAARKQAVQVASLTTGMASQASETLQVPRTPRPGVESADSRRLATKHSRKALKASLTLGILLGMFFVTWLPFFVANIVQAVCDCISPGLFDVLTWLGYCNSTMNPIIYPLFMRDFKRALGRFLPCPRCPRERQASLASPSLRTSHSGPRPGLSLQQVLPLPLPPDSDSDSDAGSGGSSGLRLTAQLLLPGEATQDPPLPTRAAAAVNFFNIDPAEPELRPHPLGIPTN
readoutType: Ki (nM)

| chemicalStructure | system | Ki [nM] |
| --- | --- | --- |
| CSc1nn2c(CO)cc(C)nc2c1S(=O)(=O)c1ccccc1 | 5-hydroxytryptamine receptor 6 (Homo sapiens, UniProt P50406) | 0.562 |
| O=S(=O)(c1cccc(F)c1)c1ccc2c3c(oc2c1)C1(CCOCC1)NCC3 | 5-hydroxytryptamine receptor 6 (Homo sapiens, UniProt P50406) | 2.1 |
| O=C1CCc2ccc(OCCCN3CCN(c4cccc5c4ccn5S(=O)(=O)c4ccccc4)CC3)cc2N1 | 5-hydroxytryptamine receptor 6 (Homo sapiens, UniProt P50406) | 2.3 |

(1) O=C1c2ccccc2S(=O)(=O)N1CCCCCCN1CCN(c2ncccn2)CC1
(2) CC(C)CS(=O)(=O)n1ccc2c(-c3ccccc3C(F)(F)F)cc(N3CCN(C)CC3)nc21
Field: lower recorded Ki (choose 1 or 2 ) Your answer should be the label of the entry you select. 2
